Tested on: NEK2;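 also: kd values determined as follow-up on hits from a single-replicate KINOMEscan panel screen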
pKd: −log10 of the molar value.
result_type: pKd

Answer briefly: pKd recorded on NEK2 for COC(=O)c1c(-c2ccccc2)c2cc(Cl)ccc2c(=O)n1Cc1ccc(S(C)(=O)=O)cc1 < 5.00

* * *

System: ERK2;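 also: KINOMEscan kinase panel screen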
Construct: gene MAPK1
Details: concentration: 1 μM, replicates: in singlicate; n = 1
Listing of entries alongside the reported %Inh.
Provide only the numeric value, understood in %.

structure_smiles	%Inh (%)
Nc1nc(-c2ccc3c(N)n[nH]c3c2)cc(N2CCCCC2)n1	0
Cn1ccc2ncnc(Oc3ccc(NC(=O)Nc4cccnc4)c(Cl)c3)c21	11
CN1CCC(n2cnc(-c3ccc(F)cc3)c2-c2ccnc(NC3CCNCC3)n2)CC1	14
O=c1cc(N2CCOCC2)nc2n(Cc3cccc(Cl)c3)ccn12	0
Cc1ccc(C)c(NC(=O)NCCNc2ccnc(Nc3ccc(F)cc3)n2)c1	0

Indicate its recorded %Inh; the compound in question is Fc1cccc(COc2ccc(Nc3ncnc4nn5ccccc5c34)cc2Cl)c1 0

Quick one: give measured %Inh for CS(=O)(=O)CCNCc1ccc(-c2ccc3ncnc(Nc4ccc(OCc5ccccc5)c(Cl)c4)c3c2)o1.Cl 0

Look up and state reported %Inh for C[C@H]1CC[C@@H](C(=O)Nc2ccccc2)CN1c1cc(-c2ccc3c(N)n[nH]c3c2)nc(N)n1 2

Provide %Inh value for the following compound: Cl.Cl.c1ccc(-c2cc3ccncc3cc2OC2CCNCC2)cc1 4

Measured values drawn from paper PMC5540273 for this set.
